The measured values listed here are drawn from paper PMC10141580.

Test system: panel of 140 standard cancer cell lines
measurement-notes: ProliFiler-140 cancer cell line screen (CellTiterGlo, 72 h)
Format: cell-based
condition: Homo sapiens, HCC1569, HCC 1569 (Breast); read-out: IC50 [M] (ProliFiler-140)
parameter-measured: IC50 (M)

[[record]]
molecule = "COc1cccc2c1C(=O)c1c(O)c3c(c(O)c1C2=O)C[C@@](O)(C(=O)CO)C[C@@H]3O[C@H]1C[C@H](N)[C@H](O)[C@H](C)O1 [doxorubicin, reference compound]"
parameter_measured = "IC50"
meas_value = "7e-07"


---

Test system: panel of 140 standard cancer cell lines
measurement-notes: ProliFiler-140 cancer cell line screen (CellTiterGlo, 72 h)
Format: cell-based
condition: LP-1 (Blood); read-out: IC50 [M] (ProliFiler-140)
parameter-measured: IC50

[[record]]
molecule = "COc1cccc2c1C(=O)c1c(O)c3c(c(O)c1C2=O)C[C@@](O)(C(=O)CO)C[C@@H]3O[C@H]1C[C@H](N)[C@H](O)[C@H](C)O1 [doxorubicin, reference compound]"
meas_value = "6.6e-07 M"

